Target: Muscarinic acetylcholine receptor M2 (Homo sapiens, UniProt P08172)
Sequence (P08172 whole entry): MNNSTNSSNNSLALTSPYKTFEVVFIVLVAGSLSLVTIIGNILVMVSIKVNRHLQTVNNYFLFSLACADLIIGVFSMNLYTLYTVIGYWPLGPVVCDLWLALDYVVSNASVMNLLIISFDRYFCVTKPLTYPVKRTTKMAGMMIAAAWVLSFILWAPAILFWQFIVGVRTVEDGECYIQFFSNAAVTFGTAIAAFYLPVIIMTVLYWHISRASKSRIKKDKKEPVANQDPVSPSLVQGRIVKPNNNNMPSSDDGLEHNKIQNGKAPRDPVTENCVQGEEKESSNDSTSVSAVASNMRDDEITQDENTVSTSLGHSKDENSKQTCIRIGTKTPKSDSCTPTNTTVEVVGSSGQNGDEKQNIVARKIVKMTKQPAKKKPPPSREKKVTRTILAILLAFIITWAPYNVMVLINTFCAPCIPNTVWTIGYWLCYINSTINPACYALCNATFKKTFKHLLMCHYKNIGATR
Assay: Competitive displacement of [3H]-NMS from human muscarinic M2 receptor expressed in CHO-K9 cells using 2 nM [3H]-NMS after 3 hrs by microbeta2 scintillation counting method
Assay type: cell-based
Attribute: pIC50
Just so you know, pIC50 here is -log10 of the concentration in molar units; reply with that number alone.

INSERT INTO assay_data (structure_smiles, assay_metric, readout_value) VALUES
  ('CC(=O)N[C@@H](CCCCN)C(=O)N[C@@H](CCCNC(=N)N)C(=O)NCCCCC1CCN(CC(=O)N2c3ccccc3NC(=O)c3ccccc32)CC1', 'pIC50', 7.38);

Query: Tell me its pIC50 given `CC(=O)N[C@@H](CCCCN)C(=O)N[C@@H](C)C(=O)N[C@@H](CCCNC(=N)N)C(=O)NCCN1CCN(CCCCC2CCN(CC(=O)N3c4ccccc4NC(=O)c4ccccc43)CC2)CC1` as the entry.
Result: 8.75
